Test system: A375
test details: Cell viability of A375 melanoma cells by Trypan Blue exclusion
Format: cell-based
protocol conditions: Homo sapiens, A-375; 5 μM, 24 h; viable cells as mean percentage of control cells ± SEM, N=3; read-out: Viab A375 5 μM/24 h
The reader will find reported viability at 5 µM values listed item by item below.
Note to self: number, then unit, no commentary.

Completed entries (count: 2):
{"columns": ["molecule", "viability at 5 µM"],
 "data": [
  ["COc1ccccc1NC(=O)NC(=N)Nc1nc(-c2ccccc2)cs1 [MTF433]", "109%"],
  ["N=C(NC(=O)Nc1ccc(Cl)cc1)Nc1nc(-c2ccccc2)cs1 [MTF426]", "109%"]
]}

// next entry
Prompt line: Provide measured viability at 5 µM value, entry: Cc1nc(NC(=N)NC(=O)Nc2cccc(Cl)c2)sc1C [MTF506]
Response line: 64.3%
